- measured_target: Inadl_5, Q8NI35
- Sequence (Q8NI35 673-780): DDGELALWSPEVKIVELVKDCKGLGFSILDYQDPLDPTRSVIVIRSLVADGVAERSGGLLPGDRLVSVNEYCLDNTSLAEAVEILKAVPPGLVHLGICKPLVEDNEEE
- assay_remarks: holdup assay
- Parameters: key: below the threshold = too weak to quantify, mostly under pKd 3.1 to 4
- recorded_conditions: plain residues with an end cap or a label only (N-terminal biotin on a linker: ado-ado)
quantity: pKd

Some entries whose results are on file:
binder	pKd
NNMAFETTHF [SLC5A12, Q1EHB4]	below the threshold
GSQSQVETEA [FKBP4, Q02790]	below the threshold
PALKNGQYWV [CSPG4, Q6UVK1]	4.31
SKQFDKNAYV [CLDN10, P78369]	3.52
DSEEELPTRL [GRK6, P43250]	below the threshold

# query: pKd of entry SGDGKTSVWI [GJC1, P36383] 3.55

What about TKDKVQETQI [LRRC4, Q9HBW1] ? below the threshold

Could you do the same for EKPIDSETKM [SLC1A3, P43003] , please? below the threshold

Just for reference, paper PMC9482650 is where these values come from.
